Entries below carry reported GI50 on SK-MEL-2 melanoma.
MEASURED ATTRIBUTE: GI50

O=[N+]([O-])c1cc2c(ccc3occc32)o1 ... 2.03 µM
COc1cc2c(cc1OCCCCCn1c3ccccc3c3ccccc31)N=C[C@@H]1CCCN1C2=O ... 1.67 µM
Cc1ccccc1NC(=O)c1cc2ccccc2cc1O ... 3.33 µM
CCc1c2c(nc3ccc(OCc4ccc(B5OC(C)(C)C(C)(C)O5)cc4)cc13)-c1cc3c(c(=O)n1C2)COC(=O)[C@]3(O)CC ... 0.825 µM

###

# Tested on: OVCAR-8 ovarian
# EXPERIMENT DESCRIPTION: NCI tumour cell line growth inhibition, 48 h
MEASURED ATTRIBUTE: TGI

Nc1nc(NCCOCP(=O)(O)O)c(N)c(=O)[nH]1 ... > 100 µM
COc1ccccc1Cn1[nH]c(=O)c2cc([N+](=O)[O-])ccc21 ... > 100 µM
O=C1C(NS(=O)(=O)c2ccccc2)=C(N(Cc2ccccc2)Cc2ccccc2)C(=O)c2ccccc21 ... > 100 µM
